- measurement_target: UniProt Q9NXA8
- experiment_summary: Inhibition of SIRT5 (unknown origin)
- Sequence (Q9NXA8 whole entry): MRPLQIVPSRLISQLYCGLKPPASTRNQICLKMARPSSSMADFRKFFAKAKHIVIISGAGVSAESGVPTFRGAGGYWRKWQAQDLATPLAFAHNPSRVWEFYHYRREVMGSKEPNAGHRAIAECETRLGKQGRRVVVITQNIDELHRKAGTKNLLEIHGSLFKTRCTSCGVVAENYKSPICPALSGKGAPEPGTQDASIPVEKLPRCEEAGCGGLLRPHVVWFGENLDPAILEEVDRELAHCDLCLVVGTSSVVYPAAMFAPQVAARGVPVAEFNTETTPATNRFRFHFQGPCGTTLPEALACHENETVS

compound: C=C1c2cccc(O)c2C(=O)C2=C(O)[C@]3(O)C(=O)C(C(N)=O)=C(O)[C@@H](N(C)C)[C@@H]3[C@@H](O)[C@H]12 [METHACYCLINE]
value_unit: µM
IC50: 3.6
--
compound: C[C@]12CC[C@@H]3c4ccc(O)cc4C[C@@H](CCCCCCCCC[S+]([O-])CCCC(F)(F)C(F)(F)F)[C@H]3[C@@H]1CC[C@@H]2O (stereo partly specified) [FULVESTRANT]
value_unit: µM
IC50: 2.6
--
compound: Cc1cc(C(C#N)c2ccc(Cl)cc2)c(Cl)cc1NC(=O)c1cc(I)cc(I)c1O (stereo unspecified) [CLOSANTEL]
value_unit: µM
IC50: 2.7
--
compound: CC(C)(Sc1cc(C(C)(C)C)c(O)c(C(C)(C)C)c1)Sc1cc(C(C)(C)C)c(O)c(C(C)(C)C)c1 [PROBUCOL]
value_unit: µM
IC50: 1.6
--
compound: O=C(O)CCNC(=O)c1ccc(/N=N/c2ccc(O)c(C(=O)O)c2)cc1 [BALSALAZIDE]
value_unit: µM
IC50: 3.9
--
compound: CC1=C2C(=COC(C)C2C)C(O)=C(C(=O)O)C1=O (stereo unspecified)
value_unit: µM
IC50: 90

====

- measurement_target: NAD-dependent protein deacylase sirtuin-5, mitochondrial (Homo sapiens, UniProt Q9NXA8)
- experiment_summary: Inhibition of recombinant human SIRT5 using flour de lys succinyl as substrate in presence of NAD+ by fluorometric assay

molecule: O=C(O)CCNC(=O)c1ccc(/N=N/c2ccc(O)c(C(=O)O)c2)cc1 [BALSALAZIDE]
measurement_target: NAD-dependent protein deacylase sirtuin-5, mitochondrial (Homo sapiens, UniProt Q9NXA8)
IC50 (µM): 5.3

====

- measurement_target: NAD-dependent protein deacetylase sirtuin-1 (Homo sapiens)
- experiment_summary: Inhibition of recombinant human SIRT1 (133 to 747 residues) expressed in Escherichia coli BL21(DE3) at 50 uM using ZMAL as substrate incubated for 4 hrs in presence of NAD+ followed by incubation with trypsin for 20 mins by trypsin-coupled assay based homogenous fluorescence analysis relative to control
- experimental_parameters: time 260.0 min

molecule: O=C(O)CCNC(=O)c1ccc(/N=N/c2ccc(O)cc2)cc1
measurement_target: NAD-dependent protein deacetylase sirtuin-1 (Homo sapiens)
inhibition: < 10%
--
molecule: NC(=O)c1cccnc1
measurement_target: NAD-dependent protein deacetylase sirtuin-1 (Homo sapiens)
inhibition: 21%
--
molecule: O=C(O)CCNCc1ccc(/N=N/c2ccc(O)c(C(=O)O)c2)cc1
measurement_target: NAD-dependent protein deacetylase sirtuin-1 (Homo sapiens)
inhibition: < 10%
--
molecule: O=C(O)CCNC(=O)c1ccc(/N=N/c2cccc(C(=O)O)c2)cc1
measurement_target: NAD-dependent protein deacetylase sirtuin-1 (Homo sapiens)
inhibition: < 10%
--
molecule: O=C(O)CCNC(=O)c1ccc(/N=N/c2ccccc2)cc1
measurement_target: NAD-dependent protein deacetylase sirtuin-1 (Homo sapiens)
inhibition: < 10%
--
molecule: Cc1ccc(C(=O)Nc2ccc(S(=O)(=O)O)c3cc(S(=O)(=O)O)cc(S(=O)(=O)O)c23)cc1NC(=O)c1cccc(NC(=O)Nc2cccc(C(=O)Nc3cc(C(=O)Nc4ccc(S(=O)(=O)O)c5cc(S(=O)(=O)O)cc(S(=O)(=O)O)c45)ccc3C)c2)c1
measurement_target: NAD-dependent protein deacetylase sirtuin-1 (Homo sapiens)
inhibition: 95%
--
molecule: O=C(O)CCNC(=O)c1ccc(/N=N/c2ccc(O)c(C(=O)O)c2)cc1 [BALSALAZIDE]
measurement_target: NAD-dependent protein deacetylase sirtuin-1 (Homo sapiens)
inhibition: < 10%

====

- measurement_target: NAD-dependent protein deacylase sirtuin-5, mitochondrial (Homo sapiens, UniProt Q9NXA8)
- experiment_summary: Inhibition of recombinant human SIRT5 at 50 uM using flour de lys succinyl as substrate in presence of NAD+ by fluorometric assay relative to control
- Sequence (Q9NXA8 37-310 limits assumed): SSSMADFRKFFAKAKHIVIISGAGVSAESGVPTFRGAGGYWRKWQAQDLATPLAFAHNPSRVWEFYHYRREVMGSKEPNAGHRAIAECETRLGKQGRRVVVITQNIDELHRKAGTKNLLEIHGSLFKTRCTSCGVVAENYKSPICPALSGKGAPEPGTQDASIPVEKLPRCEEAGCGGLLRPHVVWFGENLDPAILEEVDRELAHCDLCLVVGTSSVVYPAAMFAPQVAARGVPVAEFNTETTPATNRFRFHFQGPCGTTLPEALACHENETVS

compound: O=C(O)CNC(=S)Nc1ccc(/N=N/c2ccc(O)c(C(=O)O)c2)cc1
value_unit: %
inhibition: 24
//
compound: O=C(O)CCC(=O)Nc1ccc(/N=N/c2ccc(O)c(C(=O)O)c2)cc1
value_unit: %
inhibition: 26
//
compound: O=C(O)CCNC(=O)c1ccc(/N=N/c2ccc(O)c(C(=O)O)c2)cc1 [BALSALAZIDE]
value_unit: %
inhibition: 83
//
compound: O=C(O)CCNC(=O)c1ccc(/N=N/c2ccc(O)cc2)cc1
value_unit: %
inhibition: 73
//
compound: O=C(O)CCNC(=O)c1ccc(/N=N/c2ccccc2)cc1
value_unit: %
inhibition: 62
//
compound: O=C(O)CCCC(=O)c1ccc(/N=N/c2ccc(O)c(C(=O)O)c2)cc1
value_unit: %
inhibition: 54
//
compound: CCCNC(=O)c1ccc(/N=N/c2ccc(O)c(C(=O)O)c2)cc1
value_unit: %
inhibition: 31
//
compound: NC(=O)c1ccc(/N=N/c2ccc(O)c(C(=O)O)c2)cc1
value_unit: %
inhibition: 32
//
compound: O=C(O)CCNC(=O)c1ccc(/N=N/c2cccc(C(=O)O)c2)cc1
value_unit: %
inhibition: 63
//
compound: O=C(O)CCCC(O)c1ccc(/N=N/c2ccc(O)c(C(=O)O)c2)cc1 (stereo not given)
value_unit: %
inhibition: 39
//
compound: O=C(O)CCOCc1ccc(/N=N/c2ccc(O)c(C(=O)O)c2)cc1
value_unit: %
inhibition: 33
//
compound: O=C(O)c1ccc(/N=N/c2ccc(O)c(C(=O)O)c2)cc1
value_unit: %
inhibition: 27
//
compound: O=C(O)CCNCc1ccc(/N=N/c2ccc(O)c(C(=O)O)c2)cc1
value_unit: %
inhibition: 27
//
compound: O=C(O)CCCCc1ccc(/N=N/c2ccc(O)c(C(=O)O)c2)cc1
value_unit: %
inhibition: 32
//
compound: Cc1ccc(C(=O)Nc2ccc(S(=O)(=O)O)c3cc(S(=O)(=O)O)cc(S(=O)(=O)O)c23)cc1NC(=O)c1cccc(NC(=O)Nc2cccc(C(=O)Nc3cc(C(=O)Nc4ccc(S(=O)(=O)O)c5cc(S(=O)(=O)O)cc(S(=O)(=O)O)c45)ccc3C)c2)c1
value_unit: %
inhibition: 53

====

- measurement_target: NAD-dependent protein deacetylase sirtuin-2 (Homo sapiens)
- experiment_summary: Inhibition of recombinant human SIRT2 (25 to 389 residues) expressed in Escherichia coli BL21(DE3) at 50 uM using ZMAL as substrate incubated for 4 hrs in presence of NAD+ followed by incubation with trypsin for 20 mins by trypsin-coupled assay based homogenous fluorescence analysis relative to control
- experimental_parameters: time 260.0 min

compound: O=C(O)CCNC(=O)c1ccc(/N=N/c2ccccc2)cc1
value_unit: %
inhibition: 16
--
compound: O=C(O)CCNCc1ccc(/N=N/c2ccc(O)c(C(=O)O)c2)cc1
value_unit: %
inhibition: 19
--
compound: O=C(O)CCNC(=O)c1ccc(/N=N/c2ccc(O)c(C(=O)O)c2)cc1 [BALSALAZIDE]
value_unit: %
inhibition: 11
--
compound: O=C(O)CCNC(=O)c1ccc(/N=N/c2cccc(C(=O)O)c2)cc1
value_unit: %
inhibition: 21
--
compound: O=C(O)CCNC(=O)c1ccc(/N=N/c2ccc(O)cc2)cc1
value_unit: %
inhibition: 26
--
compound: NC(=O)c1cccnc1
value_unit: %
inhibition: 65
